measurement_notes: Solubility in fasted-state simulated colonic fluid (FaSSCoF) at pH 6.5
Type: physicochemical
test_parameters: fasted-state simulated colonic fluid (FaSSCoF), 25 °C, pH 6.5, fassgf or other biorelevant, thermodynamic from solid, pH 6.5, 25° C., Run 1, read-out: pH 6.5 FaSSCoF Solubility Run 1
Where solubility thermodynamic at 24 h equals or exceeds 1000 µg/mL, the correct label is true; where it does not, the label is false.

Please review the entries below; each comes with its answer.
INSERT INTO assay_data (molecule, category_label) VALUES
  ('COc1cc(Nc2cc(Oc3ccc(NC(=O)Nc4cc(C(C)(C)C)cc(NS(C)(=O)=O)c4OC)c4ccccc34)ccn2)cc(OCCOCCOC(C)C(=O)O)c1 (single isomer, unassigned) [20(a)]', 'false'),
  ('COc1cc(Nc2cc(Oc3ccc(NC(=O)Nc4cc(C(C)(C)C)cc(NS(C)(=O)=O)c4OC)c4ccccc34)ccn2)cc(OCCOCCOCC(=O)[O-])c1.[Na+] [Example 31]', 'true'),
  ('COc1cc(Nc2cc(Oc3ccc(NC(=O)Nc4cc(C(C)(C)C)cc(S(C)(=O)=O)c4OC)c4ccccc34)ccn2)cc(OCCOCCOCC(=O)O)c1 [Example 9]', 'false');

Is reported solubility thermodynamic at 24 h greater than or equal to 1000 µg/mL here: COc1cc(Nc2cc(Oc3ccc(NC(=O)Nc4cc(C(C)(C)C)cc(NS(C)(=O)=O)c4OC)c4ccccc34)ccn2)cc(OCCOCCSCC(=O)O)c1 [Example 19] false

Is reported solubility thermodynamic at 24 h greater than or equal to 1000 µg/mL here: C#Cc1cc(Nc2nccc(Oc3ccc(NC(=O)Nc4cc(C(C)(C)C)nn4-c4ccc(C)cc4)c4ccccc34)n2)cc(C(=O)NCCOCCOCCOC)c1 [Reference Compound B] false

* * *

System: IL-8 release in PBMCs
measurement_notes: LPS-induced IL-8 release in PBMC cells (assay (b))
Type: cell-based
test_parameters: Homo sapiens, LPS-stimulated PBMCs
This section presents compounds with their documented pIC50 values.
Quick note: pIC50 values are minus log10 of concentrations in mol/L.

INSERT INTO assay_data (compound, recorded_value) VALUES
  ('COc1cc(Nc2nccc(Oc3ccc(NC(=O)Nc4cc(C(C)(C)C)cc(NS(C)(=O)=O)c4OC)c4ccccc34)n2)cc(OCCOCCOCC(=O)O)c1 [Example 2]', 7.61),
  ('COc1cc(Nc2cc(Oc3ccc(NC(=O)Nc4cc(C(C)(C)C)cc([S+](C)[O-])c4OC)c4ccccc34)ccn2)cc(OCCOCCOCC(=O)O)c1 (stereo not shown) [Example 8]', 8.10),
  ('COc1cc(Nc2cc(Oc3ccc(NC(=O)Nc4cc(C(C)(C)C)cc(NS(C)(=O)=O)c4OC)c4ccccc34)ccn2)cc(OCCOCCOCC(=O)NS(C)(=O)=O)c1 [Example 6]', 7.74),
  ('COc1cc(Nc2cc(Oc3ccc(NC(=O)Nc4cc(C(C)(C)C)cc(NS(C)(=O)=O)c4OC)c4ccccc34)ccn2)cc(OCCOCCOC(C)(C)C(=O)O)c1 [Example 21]', 7.84),
  ('COc1cc(Nc2cc(Oc3ccc(NC(=O)Nc4cc(C(C)(C)C)cc(NS(C)(=O)=O)c4OC)c4ccccc34)ccn2)cc(OCCOCc2cc(C(=O)O)co2)c1 [Example 12]', 8.25);

Reported pIC50 of [2H]C([2H])([2H])Oc1c(NC(=O)Nc2ccc(Oc3ccnc(Nc4cc(OC)cc(OCCOCCOCC(=O)O)c4)c3)c3ccccc23)cc(C(C)(C)C)cc1NS(C)(=O)=O [Example 5] : 7.71

Reported pIC50 of COc1cc(Nc2cc(Oc3ccc(NC(=O)Nc4cc(C(C)(C)C)cc(NS(C)(=O)=O)c4OC)c4ccccc34)ccn2)cc(OCCOCc2cc(C(=O)O)cs2)c1 [Example 27] : 8.14

Reported pIC50 of COc1cc(Nc2cc(Oc3ccc(NC(=O)Nc4cc(C(C)(C)C)cc(NS(C)(=O)=O)c4OC)c4ccccc34)ccn2)cc(OCCOCCSCC(=O)O)c1 [Example 19] : 8.54

Reported pIC50 of COc1cc(Nc2cc(Oc3ccc(NC(=O)Nc4cc(C(C)(C)C)cc(NS(C)(=O)=O)c4OC)c4ccccc34)ccn2)cc(OCCOCCOCC(=O)NS(=O)(=O)N(C)C)c1 [Example 25] : 7.58

Reported pIC50 of COc1cc(Nc2cc(Oc3ccc(NC(=O)Nc4cc(C(C)(C)C)cc(NS(C)(=O)=O)c4OC)c4ccccc34)ccn2)cc(OCCOCCn2cc(C(=O)O)cn2)c1 [Example 22] : 7.74

* * *

Tested on: Jurkat cells
measurement_notes: Cell cytotoxicity assay, Jurkat cell viability (assay (r))
Assay type: cell-based, human
test_parameters: 1 μg/mL, 24 hours
Procedure: 1×10^5 Jurkat cells (immortalised human T lymphocytes) are added to the appropriate number of wells of a 96 well plate in 100 μL of media (RPMI supplemented with 10% foetal bovine serum). […] After 15 minutes, cells are analysed by flow cytometry (BD accuri) using the FL3 window. The % viability is calculated as the % of cells that are P negative in the test wells normalised to the DMSO control.
endpoint_name: % Viability at 1 μg/mL (%)
Express it in %; write the number only.

Previously resolved entries follow.
INSERT INTO results (molecule, test_target, result_units, recorded_value) VALUES
  ('COc1cc(Nc2nccc(Oc3ccc(NC(=O)Nc4cc(C(C)(C)C)cc(NS(C)(=O)=O)c4OC)c4ccccc34)n2)cc(OCCOCCOCCC(=O)O)c1 [Reference Compound A]', 'Jurkat cells', '%', 96),
  ('COc1cc(Nc2nccc(Oc3ccc(NC(=O)Nc4cc(C(C)(C)C)cc(NS(C)(=O)=O)c4OC)c4ccccc34)n2)cc(OCCOCCOCC(=O)O)c1', 'Jurkat cells', '%', 99);

Reported % Viability at 1 μg/mL of COc1cc(Nc2cc(Oc3ccc(NC(=O)Nc4cc(C(C)(C)C)cc(NS(C)(=O)=O)c4OC)c4ccccc34)ccn2)cc(OCCOCCOCC(=O)O)c1 : 99

Reported % Viability at 1 μg/mL of COCC(=O)Nc1cc(Oc2ccc(NC(=O)Nc3cc(C(C)(C)C)nn3-c3ccc(C)cc3)c3ccccc23)ccn1 [Reference compound, reference compound] : 29

* * *

System: IL-8 release in PBMCs
measurement_notes: LPS-induced IL-8 release in PBMC cells (assay (b))
Assay type: cell-based
test_parameters: Homo sapiens, LPS-stimulated PBMCs
This section presents compounds with their documented IC50 values.
For clarity, give the value followed by its unit.

INSERT INTO assay_data (compound, recorded_value) VALUES
  ('CCS(=O)(=O)c1cc(C(C)(C)C)cc(NC(=O)Nc2ccc(Oc3ccnc(Nc4cc(OC)cc(OCCOCCOCC(=O)O)c4)c3)c3ccccc23)c1OC', '16.4 nM');

Reported IC50 of COc1cc(Nc2cc(Oc3ccc(NC(=O)Nc4cc(C(C)(C)C)cc(NS(C)(=O)=O)c4OC)c4ccccc34)ccn2)cc(OCCOCC2CC(C(=O)O)CO2)c1 (stereo not drawn) : 2.8 nM

Reported IC50 of COc1cc(Nc2cc(Oc3ccc(NC(=O)Nc4cc(C(C)(C)C)cc(NS(C)(=O)=O)c4OC)c4ccccc34)ccn2)cc(OCCOCc2ccc(C(=O)O)s2)c1 : 15.3 nM

Reported IC50 of COc1cc(Nc2cc(Oc3ccc(NC(=O)Nc4cc(C(C)(C)C)cc(S(C)(=O)=O)c4OC)c4ccccc34)ccn2)cc(OCCOCCOCC(=O)O)c1 : 11.7 nM

Reported IC50 of COc1cc(Nc2cc(Oc3ccc(NC(=O)Nc4cc(C(C)(C)C)cc(P(C)(C)=O)c4OC)c4ccccc34)ccn2)cc(OCCOCCOCC(=O)O)c1 : 26.5 nM

Reported IC50 of COc1cc(Nc2cc(Oc3ccc(NC(=O)Nc4cc(C(C)(C)C)cc(NS(C)(=O)=O)c4OC)c4ccccc34)ccn2)cc(OCCOCC(=O)O)c1 : 61.9 nM

* * *

measurement_notes: Solubility in fasted-state simulated colonic fluid (FaSSCoF) at pH 6.5
Format: physicochemical
test_parameters: fasted-state simulated colonic fluid (FaSSCoF), 25 °C, pH 6.5, fassgf or other biorelevant, thermodynamic from solid, pH 6.5, 25° C., Run 2, read-out: pH 6.5 FaSSCoF Solubility Run 2
This section presents compounds with their documented log10 of solubility thermodynamic at 24 h values.
All values: base-10 log of solubility thermodynamic at 24 h in µg/mL.

Previously resolved entries follow.
INSERT INTO measurements (compound, recorded_value) VALUES
  ('COc1cc(Nc2cc(Oc3ccc(NC(=O)Nc4cc(C(C)(C)C)on4)c4ccccc34)ccn2)cc(OCCOCCOCC(=O)O)c1', 3.18),
  ('COc1cc(Nc2cc(Oc3ccc(NC(=O)Nc4cc(C(C)(C)C)cc(NS(C)(=O)=O)c4OC)c4ccccc34)ccn2)cc(OCCOCCSCC(=O)O)c1', 1.48),
  ('COc1cc(Nc2cc(Oc3ccc(NC(=O)Nc4cc(C(C)(C)C)cc(NS(C)(=O)=O)c4OC)c4ccccc34)ccn2)cc(OCCOCCOC(C)C(=O)O)c1 (single isomer, unassigned) [20(a)]', 2.81),
  ('COc1cc(Nc2cc(Oc3ccc(NC(=O)Nc4cc(C(C)(C)C)cc(NS(C)(=O)=O)c4OC)c4ccccc34)ccn2)cc(OCCOCCOCC(=O)O)c1', 2.30),
  ('COc1cc(Nc2cc(Oc3ccc(NC(=O)Nc4cc(C(C)(C)C)cc([S+](C)[O-])c4OC)c4ccccc34)ccn2)cc(OCCOCCOCC(=O)O)c1 (stereo not shown)', 3.51);

Reported log10 of solubility thermodynamic at 24 h of COc1cc(Nc2cc(Oc3ccc(NC(=O)Nc4cc(C(C)(C)C)cc(S(C)(=O)=O)c4OC)c4ccccc34)ccn2)cc(OCCOCCOCC(=O)O)c1 : 2.73

Reported log10 of solubility thermodynamic at 24 h of COc1cc(Nc2nccc(Oc3ccc(NC(=O)Nc4cc(C(C)(C)C)cc(NS(C)(=O)=O)c4OC)c4ccccc34)n2)cc(OCCOCCOCC(=O)O)c1 : 1.78

Reported log10 of solubility thermodynamic at 24 h of COc1cc(Nc2cc(Oc3ccc(NC(=O)Nc4cc(C(C)(C)C)cc(NS(C)(=O)=O)c4OC)c4ccccc34)ccn2)cc(OCCOCCOCC(=O)[O-])c1.[Na+] : 3.32

Reported log10 of solubility thermodynamic at 24 h of COc1cc(Nc2cc(Oc3ccc(NC(=O)Nc4cc(C(C)(C)C)cc(NS(C)(=O)=O)c4OC)c4ccccc34)ccn2)cc(OCCOCCOC(C)C(=O)O)c1 (stereo not shown) [Example 14] : 3.04
